Where these numbers come from: ChEMBL document CHEMBL3988442

Target: Aspartate--tRNA(Asp/Asn) ligase (Mycobacterium tuberculosis (strain ATCC 25618 / H37Rv)) (UniProt P9WFW3)
Sequence (P9WFW3 whole entry): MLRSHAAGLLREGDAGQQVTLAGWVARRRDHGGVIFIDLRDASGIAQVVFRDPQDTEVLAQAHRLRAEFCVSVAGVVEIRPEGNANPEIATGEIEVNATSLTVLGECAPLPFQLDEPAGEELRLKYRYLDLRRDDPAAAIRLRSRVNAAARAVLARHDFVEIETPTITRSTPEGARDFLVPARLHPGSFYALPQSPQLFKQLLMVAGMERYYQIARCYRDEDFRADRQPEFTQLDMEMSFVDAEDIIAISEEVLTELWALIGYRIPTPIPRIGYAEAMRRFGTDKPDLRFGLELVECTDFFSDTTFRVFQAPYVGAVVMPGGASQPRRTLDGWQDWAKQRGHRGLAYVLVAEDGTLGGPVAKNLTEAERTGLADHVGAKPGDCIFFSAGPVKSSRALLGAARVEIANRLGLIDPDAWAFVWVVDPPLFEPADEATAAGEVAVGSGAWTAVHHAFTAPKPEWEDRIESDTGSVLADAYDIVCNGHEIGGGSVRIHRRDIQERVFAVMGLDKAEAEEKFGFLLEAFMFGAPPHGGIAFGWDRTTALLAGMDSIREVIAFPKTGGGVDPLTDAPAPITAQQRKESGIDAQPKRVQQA
Test: Assay for Asp RNA synthetase-1 from Mycobacterium tuberculosis
Format: functional
Parameters: scale not given: in the data most compounds retested in dose-response had high values
Details: 30 µM
Give measured Percent Effect for each item. Keep answers brief.
Give bare numbers, in %.

Completed entries (count: 2):
CN(C)[C@@H]1CCN(c2ncccn2)[C@H]1Cc1ccccc1 = -0.0594
Cn1cc(CN2CCCN(C(=O)c3cc(Cl)cn3C)CC2)cn1 = -4.75

Continue with the compound presented below.
query: GET /values?readout=Percent Effect&item= O=C(C1CCS(=O)(=O)C1)N1CCN(c2cnccn2)CC1 (stereo not drawn)
result: 0.204
